targetUnderTest: aggrecanase-1 (Homo sapiens, UniProt O75173)
Sequence (O75173 213-837, species assumed): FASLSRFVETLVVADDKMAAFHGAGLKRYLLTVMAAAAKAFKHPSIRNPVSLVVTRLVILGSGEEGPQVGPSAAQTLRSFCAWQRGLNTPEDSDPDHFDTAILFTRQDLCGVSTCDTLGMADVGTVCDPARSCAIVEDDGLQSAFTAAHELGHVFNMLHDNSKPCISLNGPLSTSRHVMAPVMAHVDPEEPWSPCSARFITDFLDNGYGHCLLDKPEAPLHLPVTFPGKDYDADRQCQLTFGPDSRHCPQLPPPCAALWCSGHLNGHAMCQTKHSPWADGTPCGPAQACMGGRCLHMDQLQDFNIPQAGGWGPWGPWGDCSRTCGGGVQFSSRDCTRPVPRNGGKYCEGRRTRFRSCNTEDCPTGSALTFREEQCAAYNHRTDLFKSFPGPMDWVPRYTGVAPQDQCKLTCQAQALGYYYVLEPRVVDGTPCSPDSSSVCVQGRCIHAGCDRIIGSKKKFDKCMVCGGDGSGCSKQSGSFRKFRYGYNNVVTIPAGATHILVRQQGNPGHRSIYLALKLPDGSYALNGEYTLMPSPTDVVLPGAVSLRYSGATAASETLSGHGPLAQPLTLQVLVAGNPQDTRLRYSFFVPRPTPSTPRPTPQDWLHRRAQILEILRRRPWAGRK
measurementDescription: Aggrecanase-1 inhibitory action (Particle Assay, GAG release from aggrecan-containing polyacrylamide particles)
Type: biochemical
recordedConditions: aggrecanase-1 inhibitory action; read-out: IC50 AG1 (Experimental Example 1)
Description: Particle Assay was used for determination of aggrecanase activity. The enzyme and substrate were diluted with Tris-HCl buffer, and test compounds were diluted with dimethyl sulfoxide (DMSO). […] After incubation, the supernatant was transferred to another plate, and mixed with 1,9-dimethylmethylene blue. The absorbence at 595 nm was measured to quantify the amount of glycosaminoglycan (GAG) released in the reaction supernatant. […]
Readings of IC50 for the listed molecules
valueKind: IC50

>>> readoutvalue("CC1[C@H](c2ccccc2)[C@]1(NS(=O)(=O)N1CCN(C(=O)Nc2ccccc2)CC1)C(=O)O (stereo partly shown)")
"≥ 1000 nM"
>>> readoutvalue("O=C(CCc1cccc(C2CC2(NS(=O)(=O)c2ccc(-c3ccc(Cl)cc3)s2)C(=O)O)c1)N1CCSCC1 (stereo not shown)")
"< 100 nM"
>>> readoutvalue("O=C(O)C1(NS(=O)(=O)c2ccc3c(c2)Cc2cc(F)ccc2-3)CC1c1ccccc1 (stereo not shown)")
"< 100 nM"
>>> readoutvalue("O=C(O)C1(NS(=O)(=O)c2ccc(-c3ccc(Cl)cc3)s2)CC1c1cccc(OCCO)c1 (stereo not shown)")
"< 1000 nM"
>>> readoutvalue("O=C1CCCN1c1ccc(S(=O)(=O)N[C@@]2(C(=O)O)C[C@@H]2c2ccccc2)s1")
"≥ 10000 nM"
>>> readoutvalue("O=C(O)C1(NS(=O)(=O)c2ccc(-c3cc(C(F)(F)F)on3)s2)CC1c1cccc(NCc2cccnc2)c1 (stereo not shown)")
"< 100 nM"
>>> readoutvalue("CN1CCN(Cc2cccc(C3CC3(NS(=O)(=O)c3ccc(-c4ccc(Cl)cc4)s3)C(=O)O)c2)CC1 (stereo not shown)")
"< 1000 nM"

----------
Readings of pIC50 for the listed molecules
targetUnderTest: MMP-1 (Homo sapiens, UniProt P03956)
Sequence (P03956 100-469, species assumed): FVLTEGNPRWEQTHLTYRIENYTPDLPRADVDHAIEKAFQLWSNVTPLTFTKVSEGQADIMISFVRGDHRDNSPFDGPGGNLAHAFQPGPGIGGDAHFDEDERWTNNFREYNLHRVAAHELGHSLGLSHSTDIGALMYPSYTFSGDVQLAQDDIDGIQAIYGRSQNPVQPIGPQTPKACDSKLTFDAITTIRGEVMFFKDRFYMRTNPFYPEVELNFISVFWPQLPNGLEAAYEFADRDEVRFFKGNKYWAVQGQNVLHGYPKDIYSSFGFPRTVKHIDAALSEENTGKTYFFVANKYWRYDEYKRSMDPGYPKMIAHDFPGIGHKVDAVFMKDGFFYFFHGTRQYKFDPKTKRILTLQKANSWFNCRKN
measurementDescription: MMP-1 inhibitory action (Type I collagen Activity Measurement kit, FITC-labeled collagen type I)
Type: biochemical
recordedConditions: MMP-1 inhibitory action, FITC-labeled collagen type I, 37° C. for 3 hr; read-out: IC50 MMP1 (Experimental Example 2)
pIC50: −log10 of the molar value.
valueKind: pIC50

>>> readoutvalue("O=C(O)C1(NS(=O)(=O)c2ccc(-c3ccc(Cl)cn3)s2)CC1c1ccccc1CO (stereo not drawn)")
"≤ 6.00"
>>> readoutvalue("O=C(O)C1(NS(=O)(=O)c2ccc(-c3ccc(Cl)cc3)s2)CC1c1ccccc1OCc1ccccc1 (stereo not drawn)")
"≤ 5.00"
>>> readoutvalue("CC(F)(F)c1cc(-c2ccc(S(=O)(=O)N[C@@]3(C(=O)O)C[C@@H]3c3ccccc3)s2)no1")
"> 6.00"
>>> readoutvalue("O=C(O)C1(NS(=O)(=O)c2ccc(-c3ccc(Cl)cc3)s2)CC1(CO)c1ccccc1 (stereo not drawn)")
"≤ 5.00"
>>> readoutvalue("O=C(c1ccc(Cl)cc1)N1CCN(S(=O)(=O)NC2(C(=O)O)CC2c2ccccc2)CC1 (stereo not drawn)")
"≤ 5.00"
>>> readoutvalue("CN(Cc1cccnc1)c1cccc(C2CC2(NS(=O)(=O)c2ccc(-c3ccc(Cl)cc3)s2)C(=O)O)c1 (stereo not drawn)")
"≤ 5.00"
>>> readoutvalue("CN(C)C(=O)COc1cccc(C2CC2(NS(=O)(=O)c2ccc(-c3ccc(Cl)cc3)cc2)C(=O)O)c1 (stereo not drawn)")
"≤ 6.00"
>>> readoutvalue("O=C(O)[C@]1(NS(=O)(=O)c2ccc(-c3cc(C(F)(F)F)on3)s2)C[C@@H]1c1ccccc1Br")
"≤ 5.00"
>>> readoutvalue("O=C(O)[C@]1(NS(=O)(=O)c2ccc(-c3nc(C(F)(F)F)cs3)s2)C[C@@H]1c1ccccc1")
"≤ 5.00"
>>> readoutvalue("CN1CCN(C(=O)OCCCc2cccc(C3CC3(NS(=O)(=O)c3ccc(-c4cc(C(F)(F)F)on4)s3)C(=O)O)c2)CC1 (stereo not drawn)")
"≤ 6.00"
>>> readoutvalue("CC(C)C1(c2ccccc2)CC1(NS(=O)(=O)c1ccc(-c2ccc(Cl)cc2)s1)C(=O)O (stereo not drawn)")
"≤ 5.00"
>>> readoutvalue("O=C(O)C1(NS(=O)(=O)c2ccc(-c3cc(C(F)(F)F)on3)s2)CC1c1cccc([N+](=O)[O-])c1 (stereo not drawn)")
"≤ 5.00"
>>> readoutvalue("O=C(O)C1(NS(=O)(=O)c2ccc(-c3cc(C(F)(F)F)on3)s2)CC1c1ccccc1CCCO (stereo not drawn)")
"≤ 6.00"
>>> readoutvalue("COC(=O)CCc1cccc(C2CC2(NS(=O)(=O)c2ccc(-c3ccc(Cl)cc3)s2)C(=O)O)c1 (stereo not drawn)")
"≤ 6.00"
>>> readoutvalue("O=C(NCCO)c1ccccc1C1CC1(NS(=O)(=O)c1ccc(-c2ccc(Cl)cc2)s1)C(=O)O (stereo not drawn)")
"≤ 5.00"
